Assay: Open-label 3-way crossover clinical pharmacology study: plasma posaconazole pharmacokinetics in fasted healthy subjects (observed values and one-compartment model)
Type: in vivo, human
Settings: both sexes, human, plasma, oral; 200 mg QID, fasted healthy subjects; read-out: AUC (exposure)
Measured quantity: AUC

Consider the molecule shown here: CC[C@@H]([C@H](C)O)n1ncn(-c2ccc(N3CCN(c4ccc(OC[C@@H]5CO[C@@](Cn6cncn6)(c6ccc(F)cc6F)C5)cc4)CC3)cc2)c1=O What is its recorded AUC?
~12000 ng·h/mL

====

Assay: Open-label 3-way crossover clinical pharmacology study: plasma posaconazole pharmacokinetics in fasted healthy subjects (observed values and one-compartment model)
Type: in vivo, human
Conditions: both sexes, human, plasma, oral; regimen C: 200 mg every 6 h (4 doses), fasted; read-out: Mean Cmax (SD)
Measured quantity: Cmax (ng/mL)
# value in ng/mL; strip the unit string

Consider the molecule shown here: CC[C@@H]([C@H](C)O)n1ncn(-c2ccc(N3CCN(c4ccc(OC[C@@H]5CO[C@@](Cn6cncn6)(c6ccc(F)cc6F)C5)cc4)CC3)cc2)c1=O What is its recorded Cmax?
405

====

Assay: Open-label 3-way crossover clinical pharmacology study: plasma posaconazole pharmacokinetics in fasted healthy subjects (observed values and one-compartment model)
Type: in vivo, human
Conditions: both sexes, human, plasma, oral, 800 mg, regimen A: 800 mg single dose, fasted; read-out: Mean Tmax (SD) after the initial dose
Measured quantity: Tmax (h)
# value in h; strip the unit string

Consider the compound shown here: CC[C@@H]([C@H](C)O)n1ncn(-c2ccc(N3CCN(c4ccc(OC[C@@H]5CO[C@@](Cn6cncn6)(c6ccc(F)cc6F)C5)cc4)CC3)cc2)c1=O What is its recorded Tmax?
7.8

====

Assay: Open-label 3-way crossover clinical pharmacology study: plasma posaconazole pharmacokinetics in fasted healthy subjects (observed values and one-compartment model)
Type: in vivo, human
Conditions: both sexes, human, plasma, oral, 200 mg, regimen C: 200 mg every 6 h, fasted; read-out: Mean Tmax (SD) after the initial dose
Measured quantity: Tmax (h)
# value in h; strip the unit string

Consider the compound shown here: CC[C@@H]([C@H](C)O)n1ncn(-c2ccc(N3CCN(c4ccc(OC[C@@H]5CO[C@@](Cn6cncn6)(c6ccc(F)cc6F)C5)cc4)CC3)cc2)c1=O What is its recorded Tmax?
24.2

====

Assay: Open-label 3-way crossover clinical pharmacology study: plasma posaconazole pharmacokinetics in fasted healthy subjects (observed values and one-compartment model)
Type: in vivo, human
Details: both sexes, human, plasma, oral, from absorption rate constant, fasting conditions; read-out: Estimated absorption half-life (converted)
Measured quantity: half-life

Consider the compound shown here: CC[C@@H]([C@H](C)O)n1ncn(-c2ccc(N3CCN(c4ccc(OC[C@@H]5CO[C@@](Cn6cncn6)(c6ccc(F)cc6F)C5)cc4)CC3)cc2)c1=O [posaconazole] What is its recorded half-life?
3.5 h

====

Test: Open-label 3-way crossover clinical pharmacology study: plasma posaconazole pharmacokinetics in fasted healthy subjects (observed values and one-compartment model)
Type: in vivo, human
Conditions: both sexes, human, plasma, oral; regimen B: 400 mg every 12 h (2 doses), fasted; read-out: Mean Cmax (SD)
Measured quantity: Cmax (ng/mL)
# value in ng/mL; strip the unit string

Consider the compound shown here: CC[C@@H]([C@H](C)O)n1ncn(-c2ccc(N3CCN(c4ccc(OC[C@@H]5CO[C@@](Cn6cncn6)(c6ccc(F)cc6F)C5)cc4)CC3)cc2)c1=O What is its recorded Cmax?
225

====

Assay: Open-label 3-way crossover clinical pharmacology study: plasma posaconazole pharmacokinetics in fasted healthy subjects (observed values and one-compartment model)
Type: in vivo, human
Conditions: both sexes, human, plasma, oral, 800 mg, regimen A: 800 mg single dose, fasted; read-out: Tmax after the final dose
Measured quantity: Tmax (h)
# value in h; strip the unit string

Consider the compound shown here: CC[C@@H]([C@H](C)O)n1ncn(-c2ccc(N3CCN(c4ccc(OC[C@@H]5CO[C@@](Cn6cncn6)(c6ccc(F)cc6F)C5)cc4)CC3)cc2)c1=O What is its recorded Tmax?
7.8

====

Assay: Open-label 3-way crossover clinical pharmacology study: plasma posaconazole pharmacokinetics in fasted healthy subjects (observed values and one-compartment model)
Type: in vivo, human
Details: both sexes, human, plasma, oral, 400 mg, regimen B: 400 mg every 12 h, fasted; read-out: Mean Tmax (SD) after the initial dose
Measured quantity: Tmax (h)
# value in h; strip the unit string

Consider the molecule shown here: CC[C@@H]([C@H](C)O)n1ncn(-c2ccc(N3CCN(c4ccc(OC[C@@H]5CO[C@@](Cn6cncn6)(c6ccc(F)cc6F)C5)cc4)CC3)cc2)c1=O [posaconazole] What is its recorded Tmax?
16.6

====

Assay: Open-label 3-way crossover clinical pharmacology study: plasma posaconazole pharmacokinetics in fasted healthy subjects (observed values and one-compartment model)
Type: in vivo, human
Settings: both sexes, human, plasma; regimen A: 800 mg single oral dose, fasted; read-out: Mean Cmax (SD)
Method: Men and women, 18 to 45 years of age were recruited for the clinical pharmacology study. Subjects were required to be of normal body weight (within 15% of ideal body weight) and generally in good health. […] Plasma posaconazole concentrations were quantified using a validated high-performance liquid chromatographic (HPLC) assay with a lower limit of quantitation (LOQ) of 5 ng/mL and a linear range of 5.0 to 5000 ng/mL. […]
Measured quantity: Cmax (ng/mL)
# value in ng/mL; strip the unit string

Consider the compound shown here: CC[C@@H]([C@H](C)O)n1ncn(-c2ccc(N3CCN(c4ccc(OC[C@@H]5CO[C@@](Cn6cncn6)(c6ccc(F)cc6F)C5)cc4)CC3)cc2)c1=O What is its recorded Cmax?
137

====

Test: Open-label 3-way crossover clinical pharmacology study: plasma posaconazole pharmacokinetics in fasted healthy subjects (observed values and one-compartment model)
Format: in vivo, human
Details: both sexes, human, plasma, oral, 400 mg BID vs 800 mg QD, fasted; model estimate (SE); read-out: Bioavailability fraction F2, regimen B relative to regimen A
Measured quantity: bioavailability (%)
# value in %; strip the unit string

Consider the compound shown here: CC[C@@H]([C@H](C)O)n1ncn(-c2ccc(N3CCN(c4ccc(OC[C@@H]5CO[C@@](Cn6cncn6)(c6ccc(F)cc6F)C5)cc4)CC3)cc2)c1=O What is its recorded bioavailability?
198

====

Test: Open-label 3-way crossover clinical pharmacology study: plasma posaconazole pharmacokinetics in fasted healthy subjects (observed values and one-compartment model)
Type: in vivo, human
Conditions: both sexes, human, plasma, oral; regimen B 400 mg BID; model extrapolated to multiple dosing; read-out: Steady-state AUC(0-24 hr)
Measured quantity: AUC(0-t) (ng·h/mL)
# value in ng·h/mL; strip the unit string

Consider the molecule shown here: CC[C@@H]([C@H](C)O)n1ncn(-c2ccc(N3CCN(c4ccc(OC[C@@H]5CO[C@@](Cn6cncn6)(c6ccc(F)cc6F)C5)cc4)CC3)cc2)c1=O What is its recorded AUC(0-t)?
7700

====

Experiment: Open-label 3-way crossover clinical pharmacology study: plasma posaconazole pharmacokinetics in fasted healthy subjects (observed values and one-compartment model)
Type: in vivo, human
Conditions: both sexes, human, plasma, oral; one-compartment model; read-out: V/F1 (volume of distribution) estimate
Description: Men and women, 18 to 45 years of age were recruited for the clinical pharmacology study. Subjects were required to be of normal body weight (within 15% of ideal body weight) and generally in good health. […] Plasma posaconazole concentrations were quantified using a validated high-performance liquid chromatographic (HPLC) assay with a lower limit of quantitation (LOQ) of 5 ng/mL and a linear range of 5.0 to 5000 ng/mL. […]
Measured quantity: Vd/F (L)
# value in L; strip the unit string

Consider the compound shown here: CC[C@@H]([C@H](C)O)n1ncn(-c2ccc(N3CCN(c4ccc(OC[C@@H]5CO[C@@](Cn6cncn6)(c6ccc(F)cc6F)C5)cc4)CC3)cc2)c1=O [posaconazole] What is its recorded Vd/F?
4580

====

Assay: Posaconazole pharmacokinetics in bone marrow transplant (BMT) patients, 200 mg q6h for up to 25 days
Assay type: in vivo, human
Details: human, plasma, oral; 200 mg q6h for up to 25 days; high-dose chemotherapy and bone marrow transplant patients; read-out: AUC(0-24 hr) at steady state
Measured quantity: AUC(0-t) (ng·h/mL)
# value in ng·h/mL; strip the unit string

Consider the compound shown here: CC[C@@H]([C@H](C)O)n1ncn(-c2ccc(N3CCN(c4ccc(OC[C@@H]5CO[C@@](Cn6cncn6)(c6ccc(F)cc6F)C5)cc4)CC3)cc2)c1=O What is its recorded AUC(0-t)?
10600
